Exercise: state measured recombinant UMI read abundance (log10) for each of the sequences provided.
- testDescription: recombinant UMI read abundance after kanamycin selection (control-corrected) (log10(CPM+1)); higher = more efficient recombination; extreme values may be limits of the assay; sequences stand for … in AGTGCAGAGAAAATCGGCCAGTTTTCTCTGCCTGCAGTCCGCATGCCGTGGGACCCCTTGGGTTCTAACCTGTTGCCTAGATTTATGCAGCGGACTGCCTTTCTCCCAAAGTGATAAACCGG…AGGTTGGTTTCACT; site = the 11-nt donor;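 also: IS621 bridge recombinase in Escherichia coli cells against a fixed T5 target plasmid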
Give bare numbers.

{"columns": ["biopolymerSequence", "recombinant UMI read abundance (log10)"],
 "data": [
  ["CAATGCTCATGGACCGGTTTTCCCGGTAATCCGTATTTGAA (site TAATGCTCTTT)", 0.0133]
]}

Below are some sequences; for each one, tell me its recombinant UMI read abundance (log10).
1. TTCTACACATGGACCGGTTTTCCCGGTAATCCGTATTTGCT (site CTCTACACTAG)
2. CCTTTAGCATGGACCGGTTTTCCCGGTAATCCGTATTTGTG (site CCCTTAGCTCA)

Result:
1: 1.12; 2: 0.00968

Short answer for CGGTCGACATGGACCGGTTTTCCCGGTAATCCGTATTTGTT (site CGCTCGACTAA) : recombinant UMI read abundance (log10) was 0.00476
